B1: LINE1-mini (parent)
chain: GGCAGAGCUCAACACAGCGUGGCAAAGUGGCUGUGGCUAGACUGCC

variants of: B1; test: self-cleavage, relative activity (ratio to wild type); higher = more cleavage; in vitro, sequencing; the parent is a self-cleaving ribozyme
Give MET when the value for self-cleavage is at least 0.2. Give NOT MET when it is less.

In [3]: df
Out[3]:
                              query_sequence    class
 0  GGCAGAGCUCAACACAGCGUGGUAAGGUGGCUGUGGCUAGACUGCC [C23U A26G]      MET
 1  GGCAGAGCUCAACACAGCGUGGCAAAAUGGCUGCGGCUAGACUGCC [G27A U34C]  NOT MET
 2  GGCAGAGCUCUACACGGCGUGGCAAAGUGGCUGUGGCUAGACUGCC [A11U A16G]  NOT MET
 3  GGCGGAGCUCAACACAGCGAGGCAAAGUGGCUGUGGCUAGACUGCC [A4G U20A]  NOT MET
 4  GGCAGAGCUCAUCACAGCGUGGCACAGUGGCUGUGGCUAGACUGCC [A12U A25C]      MET
 5  GGCAGAGCUCAACACAGCGUGGCAAAGUGGCUGUGGCAAGACCGCC [U38A U43C]  NOT MET
 6  GGCAGAGCUCAACAAAGCGUGGCAAAGUGGCUGAGGCUAGACUGCC [C15A U34A]      MET
 7  GGCAGAGCUCAACACAGCGGGGCAAAGUGGCUGUGGCGAGACUGCC [U20G U38G]  NOT MET
 8  GGCAGAGCUCAACACAGCGUGCAAAAGUGGCUGUGGCUAGACUGCC [G22C C23A]      MET
 9  GGCGCAGCUCAACACAGCGUGGCAAAGUGGCUGUGGCUAGACUGCC [A4G G5C]  NOT MET
10  GGCAGAGCUCAACUCAGCGUCGCAAAGUGGCUGUGGCUAGACUGCC [A14U G21C]      MET
11  GGCAGAGCUCAACACAGCGUGGAAAAUUGGCUGUGGCUAGACUGCC [C23A G27U]      MET
12  GGCAGAGCUCAACACAGCGUGGCACAGUGGCGGUGGCUAGACUGCC [A25C U32G]  NOT MET
13  GGUAGAGCUGAACACAGCGUGGCAAAGUGGCUGUGGCUAGACUGCC [C3U C10G]  NOT MET
14  AGCAGAGCUCAACACAGCGUAGCAAAGUGGCUGUGGCUAGACUGCC [G1A G21A]      MET
15  GGCCGAGCUCAACACAGCGUGGCAAAGUGGCCGUGGCUAGACUGCC [A4C U32C]  NOT MET
16  GGCAGAGCUGAACACAGCGAGGCAAAGUGGCUGUGGCUAGACUGCC [C10G U20A]  NOT MET
17  GGCAGAGCUCAACACAGCGUGGCAAAGUGGCUGUCGCUAUACUGCC [G35C G40U]  NOT MET
18  GGCAGAGCUCAACACAGAGCGGCAAAGUGGCUGUGGCUAGACUGCC [C18A U20C]      MET
19  GGCAGAGCUCAAAACAGCGUGGCAAAGUGGCUGUCGCUAGACUGCC [C13A G35C]  NOT MET
20  GGCAGAGCUCAACACAGCGUGGCAAAGAGGCUGUGGCUAGCCUGCC [U28A A41C]  NOT MET
21  GGCAGAGCUAAAAACAGCGUGGCAAAGUGGCUGUGGCUAGACUGCC [C10A C13A]  NOT MET
22  GGCAGAGCUCAACACAGCGUGGCACAGUGGCUGUAGCUAGACUGCC [A25C G35A]  NOT MET
23  GGUAGAGCUCAACACAGCGUGGCAAAGUGGCUGUGGCUAGAUUGCC [C3U C42U]  NOT MET
24  GGAAGAGCUCAACACAGCGUGGCAAAGUGGCUGUGGCUAGAGUGCC [C3A C42G]  NOT MET
25  GGCAGAGCUCAACACAUCGUCGCAAAGUGGCUGUGGCUAGACUGCC [G17U G21C]      MET
26  GGCAGAGCUCAACACAGCGUGGCAAAGUGGCUGUGGCUAGUCUGGC [A41U C45G]      MET
27  GGCAGAGCUCAACACAGCCUGGCAAAGUGUCUGUGGCUAGACUGCC [G19C G30U]      MET
28  GGCAGAGCUCAACACAGCGUGACAAAGUGGCUCUGGCUAGACUGCC [G22A G33C]  NOT MET
29  GGCAGAGCUCAACACAGCGUGGCAAGGUGGCUCUGGCUAGACUGCC [A26G G33C]  NOT MET
30  GGCAGAGCUAAACACAGCGUGGCAAAGUGACUGUGGCUAGACUGCC [C10A G30A]  NOT MET
31  GGCAGAGCUCAACACAGCGUGGCAAAGUGACUGUGACUAGACUGCC [G30A G36A]      MET
32  GGCAGAGCUCAUCACAGCGAGGCAAAGUGGCUGUGGCUAGACUGCC [A12U U20A]  NOT MET
33  GGCAGUGCUCAACACAGCCUGGCAAAGUGGCUGUGGCUAGACUGCC [A6U G19C]      MET
34  GGCAGAGCUCGACACAUCGUGGCAAAGUGGCUGUGGCUAGACUGCC [A11G G17U]  NOT MET
35  GGCAGAGCUCAACACAGCGUUGCAAAGUGGCUGUGGCUAGCCUGCC [G21U A41C]  NOT MET
36  GGCAGAGCUCAACACCGCGUGGCAAAGUGGCUGUGGCUGGACUGCC [A16C A39G]  NOT MET
37  GGCAGAGCUCAAGACAGCGUGGCAAAGUGGUUGUGGCUAGACUGCC [C13G C31U]  NOT MET
38  GGCAGAGCUCAACACUGCGUGGUAAAGUGGCUGUGGCUAGACUGCC [A16U C23U]      MET
39  GGCAGAGCUCAACACAGCGUAGCAUAGUGGCUGUGGCUAGACUGCC [G21A A25U]      MET
40  GGCAGAUCUCAACACAGCGUGGCAAACUGGCUGUGGCUAGACUGCC [G7U G27C]  NOT MET
41  GGCGGAGCUCAACACAGCGUGGCAAAGUGGCUGUAGCUAGACUGCC [A4G G35A]  NOT MET
42  GGCAGACCUCAACACAGCGUGGCAAAUUGGCUGUGGCUAGACUGCC [G7C G27U]  NOT MET
43  GGAAGAGCUCAAUACAGCGUGGCAAAGUGGCUGUGGCUAGACUGCC [C3A C13U]      MET
44  GGCAGAGCUCAAAACAGCGUGGCAAAGUGGCUGUGGCUAGACUGCU [C13A C46U]  NOT MET
45  GGCAGAGCUCAACACAGCGUGACAAAGUGGCUGUGGCUAGGCUGCC [G22A A41G]      MET
46  GGCUGAGCUCAACACAGCGUGGCAAAGUGGCUGUGGCUAGACUGCG [A4U C46G]  NOT MET
47  GGCAGAGCUCAACACAGCGUGGUAAAGUGGCUGUGGCUAGACCGCC [C23U U43C]      MET
48  GGCAGAGCUCAACACAGCGAGGCAAAGUGGCUGGGGCUAGACUGCC [U20A U34G]      MET
49  GGCAGAGCUCAACACAGCGUUGCGAAGUGGCUGUGGCUAGACUGCC [G21U A24G]      MET
50  GGCAGAGCUCGACACAGCGCGGCAAAGUGGCUGUGGCUAGACUGCC [A11G U20C]  NOT MET
51  GGCAGAGCUCAACACAGCGUGGGUAAGUGGCUGUGGCUAGACUGCC [C23G A24U]      MET
52  GGCAGAGCCCAACACAGCGUGGCAAAGUGGCUGAGGCUAGACUGCC [U9C U34A]  NOT MET
53  GGCAGAGCUCAACACAGCGUGGCAAAGUGGCUAUGGCUAGACUGCC [G33A]  NOT MET
54  GCCAGAGCUCAACACAGCGUGGAAAAGUGGCUGUGGCUAGACUGCC [G2C C23A]  NOT MET
55  GGCAGAGCUCCAUACAGCGUGGCAAAGUGGCUGUGGCUAGACUGCC [A11C C13U]  NOT MET
56  GGCAGAGCUCAACACAGCGUCGCCAAGUGGCUGUGGCUAGACUGCC [G21C A24C]      MET
57  GGCUGAGCUCGACACAGCGUGGCAAAGUGGCUGUGGCUAGACUGCC [A4U A11G]  NOT MET
58  GGCAUAGCUCAGCACAGCGUGGCAAAGUGGCUGUGGCUAGACUGCC [G5U A12G]  NOT MET
59  GGCUGAGCUCAACACAGCGUGGCAAAGUGGCUGUGGCUAGCCUGCC [A4U A41C]  NOT MET
60  GGCAGAGCUAAACACAGCGUGGCAAAGUGGCUGUUGCUAGACUGCC [C10A G35U]  NOT MET
61  GGAAGAGCUCAACACAGCGUGGCAAAGUGGCUGUGCCUAGACUGCC [C3A G36C]      MET
62  GGCAGAGCUCAGCACAGCGAGGCAAAGUGGCUGUGGCUAGACUGCC [A12G U20A]  NOT MET
63  GGUAGAGCACAACACAGCGUGGCAAAGUGGCUGUGGCUAGACUGCC [C3U U9A]      MET
64  GGCAGAGCUCAACACAGCGUGGGAAAGUGGCUGUGACUAGACUGCC [C23G G36A]  NOT MET
65  GGCAGAGCUCAACACAGCGUGGCAAAGUGGCUGUGUCUAGACUUCC [G36U G44U]  NOT MET
66  GGCAAAGCUCAACACAGCGUGGCAAAGUGGCUGUGGCUAGACGGCC [G5A U43G]      MET
67  GGCAGAGCUCAACACAGCGUGGCCAAGUGGCUAUGGCUAGACUGCC [A24C G33A]  NOT MET
68  GGCAGAGCUCAACACAGCGUGGGAAAGUAGCUGUGGCUAGACUGCC [C23G G29A]      MET
69  GGCAGAGCGCAACACAGCGUGUCAAAGUGGCUGUGGCUAGACUGCC [U9G G22U]  NOT MET
70  GGCAGAGCUCAACACCGCGUGGCAAAGUGGCUGUGGCUACACUGCC [A16C G40C]  NOT MET
71  GGAAGAGCUCAACAAAGCGUGGCAAAGUGGCUGUGGCUAGACUGCC [C3A C15A]      MET
72  GGCAGAGGUCAACACAGCGUGGCAAAGUGGCUGAGGCUAGACUGCC [C8G U34A]  NOT MET
73  GGCAGAGCACAACACAGCGUGGCACAGUGGCUGUGGCUAGACUGCC [U9A A25C]  NOT MET
74  GGCAGAGCUAAACACAGCGUCGCAAAGUGGCUGUGGCUAGACUGCC [C10A G21C]  NOT MET
75  GGUAGAGCUCAACACAGCGUGGCACAGUGGCUGUGGCUAGACUGCC [C3U A25C]      MET
76  GGUAGACCUCAACACAGCGUGGCAAAGUGGCUGUGGCUAGACUGCC [C3U G7C]  NOT MET
77  GGCAGAGCUCAACACAGCGUGCCAAAGUGGCUGUGGCUAGUCUGCC [G22C A41U]      MET
78  GGCCGAGCUCAACACAGCGUGGCAAAGUGGCUGUGGCUAGGCUGCC [A4C A41G]  NOT MET
79  GGCAGAGCUCAACACAGCGUGGCAAAGUGGCUGUGGCAAGACUGUC [U38A C45U]      MET
80  GGCAGAGCUCAACACAGCGUGGCAAAGGGGCGGUGGCUAGACUGCC [U28G U32G]      MET
81  GGCAGAGCUCAACACAGCGUGGCAAAGUGGCUAUGGCUAGAGUGCC [G33A C42G]  NOT MET
82  GGCAGAGCUCUACACAGCGUGGCAAAGUGGUUGUGGCUAGACUGCC [A11U C31U]  NOT MET
83  GGCAGAGCUGAACACAGCGUGGCAAAGUGGCUGUGGCUACACUGCC [C10G G40C]  NOT MET
84  GGCAGAGCUCAACACAGCGUGGCAAACUGGCUGUGGCUAAACUGCC [G27C G40A]  NOT MET
85  GGCAGAGCUCAACACAGCGUGGCAAAGUGGCUGUGGCUGGACUGCA [A39G C46A]  NOT MET
86  GGCAGAGCUCAACAAAGCGUGGCAAAGUGGCUGUGGCGAGACUGCC [C15A U38G]  NOT MET
87  GGCAGAGCUCAACACAGUGUGGCAAAGUGGGUGUGGCUAGACUGCC [C18U C31G]  NOT MET
88  GGCAGAGCUCAACACAUCGUGGCAAAGUGGCUGUGGCUAGACUGGC [G17U C45G]  NOT MET
